Recorded values, source ChEMBL document CHEMBL4513216.

- Experimental details: Toxicity liver stage against HepG2, at 10uM
- Format: cell-based
- Parameters: test concentration 10 uM, cell line HepG2-A16-CD81EGFP
- Condition context: human, HepG2-A16-CD81EGFP cells; read-out: INHIBITION
Quantity measured: cytotoxicity at 10 µM (%)
Respond with the bare value in %.

Task: Given the molecule `Cc1nc2cc(C(=O)N3C[C@@H](C(=O)O)[C@H](c4ccncc4)C3)ccc2[nH]1` , what is its reported cytotoxicity at 10 µM?
Result: 0.682

Task: Fill in the blank: the reported cytotoxicity at 10 µM of `Cc1ccc(CNC(=O)CN2CCN(CCO)CC2)s1` is ____.
Result: 9.03

Task: Given the molecule CCc1n[nH]c(C2CN(C(=O)c3ccsc3)CCO2)n1 (stereo unspecified) , what is its reported cytotoxicity at 10 µM?
Result: 2.24

Task: Given `CCSc1ccccc1C(=O)N(CCOC)Cc1ccoc1` , state its recorded cytotoxicity at 10 µM.
Result: 13.8

Task: I'd like to know its cytotoxicity at 10 µM. The molecule in question is Cc1ccc(OCCN(C)C2CCOC2=O)cc1 (stereo unspecified)
Result: -146

Task: Name the recorded cytotoxicity at 10 µM for `Cc1ncsc1CCN(C)Cc1cc2n(n1)CCN(Cc1ncc[nH]1)C2` .
Result: -22.2

====

- Experimental details: Toxicity liver stage against HepG2, at 10uM
- Format: cell-based
- Parameters: test concentration 10 uM, cell line HepG2-A16-CD81EGFP
- Condition context: human, HepG2-A16-CD81EGFP cells; read-out: INHIBITION
Exercise: state measured cytotoxicity at 10 µM for each of the compounds provided.
A number alone suffices; assume %.

Task: What cytotoxicity at 10 µM value was documented for this compound, `Cc1oc(-c2ccc(F)cc2F)nc1CN1C[C@@H](C)O[C@@H](C)C1` ?
Result: -39.9

Task: Which cytotoxicity at 10 µM value belongs to CC(NC(=O)Nc1cnn(CC(N)=O)c1)c1ccc(Cl)s1 (stereo unspecified) ?
Result: 11.5

Task: Field request: cytotoxicity at 10 µM | item: `CC(=O)c1ccc(-n2ccc3nc(N4CCCC4)ncc3c2=O)cc1`
Result: 1.45

Task: Which cytotoxicity at 10 µM value belongs to `Cc1nc(CSc2ccc(C(F)(F)F)cn2)no1` ?
Result: -3.38

Task: Fill blank: measured cytotoxicity at 10 µM of the compound CC(=O)N1CCN(CC(N)=O)CC(COc2ccccc2)C1 (stereo unspecified) is ____.
Result: -28.7

Task: So what does the record say about cytotoxicity at 10 µM for `O=C(NCCc1ccncc1)c1cccc(S(=O)(=O)NC2CC2)c1` ?
Result: -151

Task: Which measured cytotoxicity at 10 µM value corresponds to `Cc1ccc(C(=O)N2C[C@@H](OCc3cccnc3)[C@H]3OCCC[C@H]32)o1` ?
Result: 4.74

Task: Quick one: cytotoxicity at 10 µM of `CCn1ncc(S(=O)(=O)N[C@@H]2CC[C@@H](n3ccnc3)[C@@H]2O)c1C` ?
Result: -3.4

Task: Entry `CCCOC(=O)N1CCn2nc(-c3nc4ccccc4n3C)cc2C1` has what cytotoxicity at 10 µM?
Result: 10.6

Task: Which cytotoxicity at 10 µM is reported for this compound? CCc1nnc(Nc2cc(C)nc(C3CCN(c4ccncn4)C3)n2)s1 (stereo unspecified)
Result: 4.38

Task: // cytotoxicity at 10 µM lookup, key: O=C(c1cccc(C2CCNC2)c1)N1CCC(c2ccncc2)CC1 (stereo unspecified)
Result: -1.12

====

For each record, write down the corresponding cytotoxicity at 10 µM.
- Experimental details: Toxicity liver stage against HepG2, at 10uM
- Type: cell-based
- Parameters: test concentration 10 uM, cell line HepG2-A16-CD81EGFP
- Condition context: human, HepG2-A16-CD81EGFP cells; read-out: INHIBITION
Please reply with the bare figure in % and do not write the unit itself.

Task: Which cytotoxicity at 10 µM value is on record for COc1c(CC2CC(CO)=NO2)c(Br)c2c(c1OC)OCO2 (configuration not stated) ?
Result: -1.43

Task: Entry `COc1cccc(-c2noc(-c3ccc(NCCCN)nc3)n2)c1OC` : reported cytotoxicity at 10 µM = ?
Result: -1.43

Task: Which measured cytotoxicity at 10 µM value corresponds to `COc1ccc(F)c(-c2nccn2CCN2CCCC2)c1` ?
Result: -11.8

Task: Could you tell me which cytotoxicity at 10 µM is on file for `CCNC(=O)c1nc2c(s1)CCCN2S(C)(=O)=O` ?
Result: -12.6

Task: State the recorded cytotoxicity at 10 µM for this entry: `COC(=O)c1cc(OC)ccc1NCC(=O)NCC(=O)N1CCCC1`
Result: 0.431

Task: State the recorded cytotoxicity at 10 µM for this entry: `O=C(c1cc[nH]n1)N1CCc2cc(Br)sc2C1`
Result: 7.01

Task: # cytotoxicity at 10 µM lookup, item Cc1cc(NC2CCc3ncnn3C2)n2nc(C(F)(F)F)nc2n1 (configuration not stated)
Result: 2.93

Task: Name the recorded cytotoxicity at 10 µM for `c1ccc(CCCN2CCN(CCn3cncn3)CC2)cc1` .
Result: -11.3

Task: Can you share its cytotoxicity at 10 µM? I mean this molecule: `Cc1ccccc1[C@@H]1CN(CCCS(=O)(=O)N(C)C)C[C@H]1C(=O)O`
Result: -5.51

Task: // lookup cytotoxicity at 10 µM for `O=C(CN(C1=NCCCC1)c1ccccc1)c1ccc(OC(F)F)cc1`
Result: 2.88

Task: Item under review: CC(NCc1ccccc1O)c1ccc(-n2ccnc2)cc1 (configuration not stated) . Reported cytotoxicity at 10 µM?
Result: -46.9

Task: Item `CCNc1cc2c(nn1)CCN(C(=O)c1ccsc1)C2` has what recorded cytotoxicity at 10 µM?
Result: -13.7

====

- Experimental details: Toxicity liver stage against HepG2, at 10uM
- Type: cell-based
- Design: test concentration 10 uM, cell line HepG2-A16-CD81EGFP
- Condition context: human, HepG2-A16-CD81EGFP cells; read-out: INHIBITION
Quantity measured: cytotoxicity at 10 µM (%)
The answer is to be given in %; state only the numeric part.

Task: Looking for the measured cytotoxicity at 10 µM of CNC(=O)Cc1noc(-c2cc3c(s2)CCC(C)C3)n1 (stereo not drawn) , can you help?
Result: 4.75

Task: Record request: cytotoxicity at 10 µM value, item `Cn1ncc(N2CCC(CNC(=O)[C@@H](N)C3CCCCC3)CC2)cc1=O`
Result: 12.7

Task: Can you look up the measured cytotoxicity at 10 µM of CCN1CC(COc2ccccc2)Oc2ncccc2S1(=O)=O (stereo not drawn) for me?
Result: -0.947

Task: Sample `Cc1ccc(N2CCCc3sc(C(=O)NCCC#N)nc32)nn1` — what was its cytotoxicity at 10 µM?
Result: 11.6

Task: Bench note: what cytotoxicity at 10 µM did `CC(=O)N1CCCn2nc(CNS(=O)(=O)Cc3ccccc3)cc2C1` show?
Result: -6.19

Task: Bench note: what cytotoxicity at 10 µM did Cc1nn(C)c2nc(N3CCCCC3c3cccnc3)sc12 (stereo not drawn) show?
Result: -6.9

Task: Recorded cytotoxicity at 10 µM for `CCOC[C@@]12CCC[C@@H]1CN(C(=O)COc1ccccc1OC)C2` , please?
Result: -106

Task: // query cytotoxicity at 10 µM value for entry `CC(C)c1nc(S(=O)(=O)N(C)c2cc(F)ccc2F)c[nH]1`
Result: 13.9

Task: Could you share which cytotoxicity at 10 µM value was measured for `COC[C@@]12CC[C@@H](N3CCOCC3)C[C@H]1CCN(c1ncccc1C)C2` ?
Result: -1.33

Task: # input compound: `CC(C)(C)NC(=O)CNC(=O)c1cccnc1Oc1cccnc1` ; wanted: its cytotoxicity at 10 µM
Result: 4.11

Task: Could you tell me which cytotoxicity at 10 µM is on file for Cc1nc(NC(=O)C(C)N(C)Cc2ccc3c(c2)OCO3)sc1C (stereo not drawn) ?
Result: 0.787

Task: State the recorded cytotoxicity at 10 µM for this entry: Cc1noc(C)c1CCC(=O)N1CCOCC1CCc1cnccn1 (stereo not drawn)
Result: -3.37

Task: So what does the record say about cytotoxicity at 10 µM for c1cnc(N2CCCC3(CCN(Cc4cccs4)C3)C2)nc1 (stereo not drawn) ?
Result: 2.58

Task: Recorded cytotoxicity at 10 µM for `c1c(CN2CCCC2)nc2n1CCN(C1CCOCC1)C2` , please?
Result: 0.641

Task: cytotoxicity at 10 µM for `Cc1ccc2nc(C(=O)N3C[C@@H](C(=O)O)[C@H](c4ccccc4)C3)cn2c1` ?
Result: 5.96

Task: Could you share which cytotoxicity at 10 µM value was measured for Cc1nc(C)c(C(=O)N2CCc3nnc(C4CCCN4C)n3CC2)s1 (stereo not drawn) ?
Result: -4.34

Task: Which cytotoxicity at 10 µM is listed for `COc1ccc(F)cc1C(=O)N(C)Cc1cc(C)on1` ?
Result: 0.35

Task: Looking for the measured cytotoxicity at 10 µM of `CCn1cc(C(=O)n2nc(C)cc2C)c(S(=O)(=O)N2CCCCC2)n1` , can you help?
Result: -3.81

Task: Name the reported cytotoxicity at 10 µM value associated with the compound Cc1cnn(CC2CN(c3nnc(C)c(C)c3C#N)CCO2)c1 (stereo not drawn)
Result: -5.25

Task: So what does the record say about cytotoxicity at 10 µM for `Cc1ccccc1CS(=O)(=O)Cc1nc(C2CC2)no1` ?
Result: 4.49

Task: Can you look up the measured cytotoxicity at 10 µM of `c1ccc(CN2CCC(Cc3noc(C4CC4)n3)CC2)cc1` for me?
Result: 5.56

Task: Look at this compound and give its reported cytotoxicity at 10 µM. `COc1ccc(CN2C[C@@H](OCc3ccccn3)[C@H]3COC[C@H]32)cc1`
Result: 3.63

Task: // lookup cytotoxicity at 10 µM for `O=C(c1ccncc1)N1CCCn2c(CN3CCCCC3)nnc2C1`
Result: -5.77
